Target: Rat FAAH (Rattus norvegicus, UniProt P97612)
Construct: expressed in transfected cells; host or cells: SK-N-MC cells stably transfected with rat FAAH cDNA (G418 selection)
Sequence (P97612 whole entry): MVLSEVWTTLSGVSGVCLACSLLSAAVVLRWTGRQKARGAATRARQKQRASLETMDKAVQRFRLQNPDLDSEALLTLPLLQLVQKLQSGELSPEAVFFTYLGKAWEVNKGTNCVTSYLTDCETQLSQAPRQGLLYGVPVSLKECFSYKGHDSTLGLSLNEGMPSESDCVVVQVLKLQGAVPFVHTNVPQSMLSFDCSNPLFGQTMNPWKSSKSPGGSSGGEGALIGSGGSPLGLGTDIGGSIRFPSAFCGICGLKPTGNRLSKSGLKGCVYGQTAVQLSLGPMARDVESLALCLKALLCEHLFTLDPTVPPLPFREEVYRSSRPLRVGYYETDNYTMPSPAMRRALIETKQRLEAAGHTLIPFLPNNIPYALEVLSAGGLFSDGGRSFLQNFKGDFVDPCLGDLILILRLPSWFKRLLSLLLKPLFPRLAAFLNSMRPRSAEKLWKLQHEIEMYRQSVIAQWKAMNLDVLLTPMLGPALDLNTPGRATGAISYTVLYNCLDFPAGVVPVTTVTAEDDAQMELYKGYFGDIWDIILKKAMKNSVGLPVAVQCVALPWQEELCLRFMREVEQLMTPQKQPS
Assay: Assay Method 2: rat FAAH assay (3H-anandamide hydrolysis in cell homogenate)
Assay type: biochemical
Settings: read-out: Assay 2 IC50
Method: A. Transfection of Cells with Rat FAAH A 10-cm tissue culture dish with a confluent monolayer of SK-N-MC cells was split 2 days (d) prior to transfection. Using sterile technique, the media was removed and the cells were detached from the dish by the addition of trypsin. One fifth of the cells were then placed onto a new 10-cm dish. […] After 10 d, dishes were analyzed for surviving colonies of cells. […]
pIC50: −log10 of the molar value. Structures can show the parent of a compound that is named as a salt.
Property name: pIC50

// solved cases for pIC50 follow
# Compound, pIC50
rows = [
    ("O=C(Nc1ncccn1)N1CC2(CCN(Cc3cccc(Oc4ccc(Cl)cc4)c3)CC2)C1 [Example 42, trifluoroacetic acid salt]", 6.00),
    ("O=C(Nc1cccnc1)N1CC2(CCN(Cc3cccc(Oc4ccc(F)c(C(F)(F)F)c4)c3)CC2)C1", 5.30),
]

A: O=C(Nc1ccc(Cl)nc1)N1CC2(CCN(Cc3cccc(Oc4ccc(Cl)cc4)c3)CC2)C1 [Example 48, trifluoroacetic acid salt]
B: O=C(Nc1noc2ccccc12)N1CCC2(CC1)CN(Cc1cccc(Oc3ccc(Cl)cc3)c1)C2
C: O=C(Nc1ccc(F)nc1)N1CC2(CCN(Cc3cccc(Oc4ccc(Cl)cc4)c3)CC2)C1 [Example 58, trifluoroacetic acid salt]
D: O=C(Nc1ccc(-n2nccn2)nc1)N1CCCC2(CCN(Cc3cccc(Oc4ccc(Cl)cc4)c3)CC2)C1
Query :: Output the entries ranked by pIC50 from maximum down to minimum. Returns: the labels arranged in the requested order.
Result :: B, C, D, A
(B: 8.00, C: 6.16, D: 5.30, A: 5.10)

a: O=C(Nc1noc2ccccc12)N1CCC2(CCN(Cc3cccc(Oc4ccc(Cl)cc4)c3)CC2)C1 [Example 92, trifluoroacetic acid salt]
b: O=C(Nc1cnc2ccccn12)N1CCCC2(CN(Cc3cccc(Oc4ccc(Cl)cc4)c3)C2)C1
Query :: Between the entries labeled a and b , whose measured pIC50 is lower? Please respond with the label that marks your chosen entry.
Result :: b
(b: 6.92, a: 7.70)

a: Cc1cncc(NC(=O)N2CC3(CCN(Cc4cccc(Oc5ccc(Cl)cc5)c4)CC3)C2)c1 [Example 79, trifluoroacetic acid salt]
b: O=C(Nc1ccc(-n2nccn2)nc1)N1CCC2(CCN(Cc3cccc(Oc4ccc(Cl)cc4)c3)CC2)CC1
c: O=C(Nc1ccc(-n2nccn2)nc1)N1CCC2(CCCN2Cc2cccc(Oc3ccc(Cl)cc3)c2)C1 (stereo not shown)
Query :: Let's sort these by pIC50, smallest first. Go ahead? Returns: the labels arranged in the requested order.
Result :: c, b, a
